// data source = the Bradley open melting point set (2014)

Label yes (1) when melting point is at or above 40 °C; anything below gets no (0).

1. COc1ccc(CBr)c(Cl)c1 [2-chloro-4-methoxybenzyl bromide] :: yes (1)
2. N#Cc1ccc(C(F)(F)F)cc1[N+](=O)[O-] :: yes (1)
3. [C-]#[O+] [Carbon monooxide] :: no (0)
4. CCC1(CCC(C)C)C(=O)NC(=O)NC1=O :: yes (1)
5. CC(C)(C)C1=CC(=O)C=C(C(C)(C)C)C1=O :: yes (1)

###

EXPERIMENTAL_ENDPOINT: melting point (°C)

1. Cc1ccc(S(N)(=O)=O)cc1 [p-toluenesulfonamide] :: 139
2. CC1=NN(CN2CCCCC2)C(=O)/C1=N\Nc1ccc(Cl)cc1Cl :: 123
3. O=c1cc(CO)occ1O :: 154
4. [2H]c1c([2H])c([2H])c2c([2H])c([2H])c([2H])c([2H])c2c1[2H] :: 82
5. C(#Cc1ccccc1)c1ccccc1 :: 60
